Consider the following compounds; for each one, report its T/C.
Test system: P388 leukemia ip, CD2F1 mice, survival T/C
procedure.summary: NCI In Vivo Anticancer Drug Screen. Data for tumor model P388 Leukemia (intraperitoneal) in CD2F1 (CDF1) mice
condition: endpoint: median survival time; dose: 50.0 mg/kg/injection; schedule: Q01DX009 (ip); vehicle: Klucel (hydroxypropylcellulose) (HPC); higher = longer survival
Inconclusive results and toxic doses are left out.

**Q:** Data request, read-out T/C, for `CCCSCCCC(=O)O`
**A:** 100 % of control

**Q:** Subsequent entry: C[As](C)[Se]CC1OC2OC(C)(C)OC2C2OC(C)(C)OC12 (configuration not stated)
**A:** 89 % of control

**Q:** Subsequent entry: `COc1ccc(C(O)(c2ccccc2)c2ccccc2)c(OC)c1`
**A:** 98 % of control

**Q:** Subsequent entry: COc1ccc2c(c1)CCC1(C)CC(=O)C(Br)=C21 (configuration not stated)
**A:** 106 % of control

**Q:** Subsequent entry: `C=CCSc1nc2ccc(NC(=O)CCC(=O)O)cc2s1`
**A:** 103 % of control

**Q:** Subsequent entry: NC(N)=NCC(NS(=O)(=O)c1ccccc1)C(=O)O (configuration not stated)
**A:** 111 % of control

**Q:** Subsequent entry: `CCCCOC(=O)NCNC(=O)OCCCC`
**A:** 99 % of control

* * *

Tested on: P388 leukemia ip, CD2F1 mice, survival T/C
procedure.summary: NCI In Vivo Anticancer Drug Screen. Data for tumor model P388 Leukemia (intraperitoneal) in CD2F1 (CDF1) mice
condition: endpoint: median survival time; dose: 400.0 mg/kg/injection; schedule: Q01DX009 (ip); vehicle: saline
Inconclusive results and toxic doses are left out. Rule for the calls: active = survival T/C of 150% or more; inactive = T/C below 125% in these data.
Respond only with the outcome that fits, drawn from active, inactive

**Q:** Write down the call the test reported for this molecule. Item: `CN(C)P(=O)(N(C)C)N(C)CO`
**A:** inactive

**Q:** Subsequent entry: `CS(=O)(=O)OCCOS(C)(=O)=O`
**A:** active

**Q:** Subsequent entry: CC(=O)C1(C)CC=CCC1C(=O)O (stereo unspecified)
**A:** inactive

**Q:** Subsequent entry: `Cc1nc(Sc2nc3ccc([N+](=O)[O-])cc3s2)sc1C`
**A:** inactive

**Q:** Subsequent entry: `COc1cc(-c2ccc(N=Nc3cc(S(=O)(=O)O)c4ccccc4c3O)c(OC)c2)ccc1N=Nc1cc(S(=O)(=O)O)c2ccccc2c1O`
**A:** inactive

**Q:** Subsequent entry: `Cc1cnc(C(N)=O)c(=O)[nH]1`
**A:** inactive

* * *

Consider the following molecules; for each one, report its T/C.
Tested on: P388 leukemia ip, CD2F1 mice, survival T/C
procedure.summary: NCI In Vivo Anticancer Drug Screen. Data for tumor model P388 Leukemia (intraperitoneal) in CD2F1 (CDF1) mice
condition: endpoint: median survival time; dose: 100.0 mg/kg/injection; schedule: Q04DX003 (ip); vehicle: Klucel (hydroxypropylcellulose) (HPC); higher = longer survival
Inconclusive results and toxic doses are left out.

**Q:** Given the entry `COc1cc2c3c(cccc3c1)C(=O)N(CCN1CCCC1)C2=O` , what T/C was observed with P388 leukemia ip, CD2F1 mice, survival T/C?
**A:** 101 % of control

**Q:** Subsequent entry: `O=c1cc(-c2ccccc2)oc2c(O)c(O)cc(O)c12`
**A:** 104 % of control

**Q:** Subsequent entry: `O=C1OCCOCCOCCOCCOCCOCCOC(=O)c2cccc1n2`
**A:** 100 % of control

**Q:** Subsequent entry: COc1ccc(N2CCN(CC(O)COc3cc4c(c5c3CCCC5)CCCC4)CC2)cc1 (stereo unspecified)
**A:** 104 % of control

**Q:** Subsequent entry: COC(=O)C1C(C)C2CCCCC2CC1(C)O (stereo unspecified)
**A:** 103 % of control

**Q:** Subsequent entry: `CC1(C)NN=C(SCc2ccccc2)NC1=O`
**A:** 98 % of control

**Q:** Subsequent entry: `O=C(S)CC1(O)CCCCC1`
**A:** 99 % of control

**Q:** Subsequent entry: `CC(C)OC(=O)c1ccc(=O)oc1`
**A:** 105 % of control

**Q:** Subsequent entry: `COc1ccc(/C=C2\CCOc3ccc(C)cc3C2=O)cc1`
**A:** 94 % of control

**Q:** Subsequent entry: `CN(C(=O)C(Cl)Cl)c1ccc(-c2csc(-c3ccccc3)n2)cc1`
**A:** 100 % of control

**Q:** Subsequent entry: `O=C(O)C1=Cc2ccccc2OC1`
**A:** 101 % of control

**Q:** Subsequent entry: `O=C1C=C(c2ccccc2)CS1`
**A:** 101 % of control

**Q:** Subsequent entry: `CN1CC(=O)N=C1N`
**A:** 100 % of control

**Q:** Subsequent entry: COC(=O)C1c2c(C)cc3n2C(C=C(C)C3)C1C(=O)OC (stereo unspecified)
**A:** 100 % of control

**Q:** Subsequent entry: CCOC(=O)CC1(C)NC(=O)NC1=O (stereo unspecified)
**A:** 100 % of control

**Q:** Subsequent entry: `CCn1c2ccccc2c2ccc(N=Nc3ccccc3)cc21`
**A:** 100 % of control

**Q:** Subsequent entry: CC(C)CNC(=O)c1ccc(OCC(O)CNC(C)(C)C)c(Cl)c1 (stereo unspecified)
**A:** 107 % of control

**Q:** Subsequent entry: `CN(C)C1=C(c2ccccc2)C(=O)C(c2ccccc2)=C1c1ccccc1`
**A:** 106 % of control

**Q:** Subsequent entry: `Oc1ccc(N=Nc2ccc3ccc4cccc5ccc2c3c45)c2cccnc12`
**A:** 100 % of control

**Q:** Subsequent entry: CN(C)c1ccc(C(=O)C2CCCC(C)(C)C2)cc1 (stereo unspecified)
**A:** 98 % of control

**Q:** Subsequent entry: CCOP(=O)(O)C1CCCC(C)[N-]1.CCOP(=O)(O)C1CCCC(C)[N-]1.[Mn+2] (stereo unspecified)
**A:** 100 % of control

* * *

Consider the following compounds; for each one, report its T/C.
System: P388 leukemia ip, CD2F1 mice, survival T/C
procedure.summary: NCI In Vivo Anticancer Drug Screen. Data for tumor model P388 Leukemia (intraperitoneal) in CD2F1 (CDF1) mice
condition: endpoint: median survival time; dose: 200.0 mg/kg/injection; schedule: Q01DX001 (ip); vehicle: Klucel (hydroxypropylcellulose) (HPC); higher = longer survival
Toxic doses and inconclusive results are not listed.

**Q:** Data request, read-out T/C, for CC(=O)N=c1sccn1CC(O)c1ccccc1 (stereo unspecified)
**A:** 118 % of control

**Q:** Subsequent entry: O=C(O)CCC(C(=O)O)N(Cc1ccccc1)Cc1ccccc1 (stereo unspecified)
**A:** 100 % of control

**Q:** Subsequent entry: `Cc1nc2n(c1C(N)=O)CCS2`
**A:** 99 % of control

**Q:** Subsequent entry: `CCOc1ccc(-n2c(=O)c(N=Nc3ccccc3OC)c(O)n(-c3ccccc3Cl)c2=S)cc1`
**A:** 101 % of control

**Q:** Subsequent entry: `O=C(Oc1ccccc1)OC1CCN(C(=O)Oc2ccccc2)CC1`
**A:** 100 % of control

**Q:** Subsequent entry: `O=C1Nc2ccccc2/C1=c1/sc2nc3ccccc3n2c1=O`
**A:** 89 % of control

* * *

System: P388 leukemia ip, CD2F1 mice, survival T/C
procedure.summary: NCI In Vivo Anticancer Drug Screen. Data for tumor model P388 Leukemia (intraperitoneal) in CD2F1 (CDF1) mice
condition: endpoint: median survival time; dose: 200.0 mg/kg/injection; schedule: Q01DX009 (ip); vehicle: saline; higher = longer survival
Inconclusive results and toxic doses are left out. Peptide text beside a SMILES is read from it.
Consider the following compounds; for each one, report its T/C.

**Q:** Data request, read-out T/C, for `Clc1ccc(N2CCOCC2)nn1`
**A:** 100 % of control

**Q:** Subsequent entry: COc1ccc(C(O)C/[N+]([O-])=C/c2ncc([N+](=O)[O-])n2C)cc1 (configuration not stated)
**A:** 106 % of control

**Q:** Subsequent entry: `CC(C)C(=O)CP(=O)(O)O`
**A:** 108 % of control

**Q:** Subsequent entry: `O=c1ccn2ccccc2n1`
**A:** 95 % of control

**Q:** Subsequent entry: `O=C1C2=C(SCCS2)C(=O)N1c1cccc2ccccc12`
**A:** 100 % of control

**Q:** Subsequent entry: NC(Cc1ccccc1)C(=O)NC(Cc1ccccc1)C(=O)O (stereo not drawn) (H-Phe-Phe-OH; configuration not given here)
**A:** 94 % of control

**Q:** Subsequent entry: `CCN(CC)CC1(CC(=O)N2c3ccccc3Sc3ccccc32)COC1`
**A:** 105 % of control

**Q:** Subsequent entry: CC1=CC(O)CC(C)(C)C1 (configuration not stated)
**A:** 99 % of control

**Q:** Subsequent entry: `Cc1cc2c(cc1Cl)ncn2C`
**A:** 118 % of control

**Q:** Subsequent entry: NNC(=O)CC(N)C(=O)O (configuration not stated)
**A:** 116 % of control

**Q:** Subsequent entry: CC1OC2COC(C)OC2C(C2CN2)O1 (configuration not stated)
**A:** 117 % of control

**Q:** Subsequent entry: `N#CC(C#N)=Cc1ccc(N2CCCCC2)cc1`
**A:** 100 % of control

**Q:** Subsequent entry: `COc1ncnc(Sc2ncccn2)c1[N+](=O)[O-]`
**A:** 109 % of control

**Q:** Subsequent entry: COCC(O)C(NC(=O)CCl)C(=O)O (configuration not stated)
**A:** 95 % of control

**Q:** Subsequent entry: O=C1NC(=O)C2=C1CCCC2O (configuration not stated)
**A:** 118 % of control

**Q:** Subsequent entry: `Nc1nnc2cc(F)ccc2n1`
**A:** 113 % of control

**Q:** Subsequent entry: `CN(C)CCC(=O)c1ccc(O)cc1`
**A:** 106 % of control

**Q:** Subsequent entry: CCCCC(NC(=O)CCl)C(=O)O (configuration not stated)
**A:** 98 % of control

**Q:** Subsequent entry: OC1CC2CC1CC2O (configuration not stated)
**A:** 104 % of control

**Q:** Subsequent entry: C=CCC(NC(=O)CC)C(=O)O (configuration not stated)
**A:** 103 % of control

**Q:** Subsequent entry: O=C1Nc2ccccc2C(O)(c2ccccc2)N1Cc1ccccc1 (configuration not stated)
**A:** 87 % of control

**Q:** Subsequent entry: O/N=C1\CCC2CCCCC2C1 (configuration not stated)
**A:** 104 % of control
